Experiment: A CellTox Green Cytotoxicity Assay to monitor cytotoxicity in HepG2 cells - 16 hour (AID 1224876); also: nearly all actives have a fitted effect of over 45% in size
Conditions: CellTox Green fluorescence; series mostly up to 76.8 µM
Description: National Center for Advancing Translational Sciences [NCATS] NIH Chemical Genomics Center [NCGC] U.S. Environmental Protection Agency [EPA] National Institutes of Environmental Health Sciences [NIEHS] National Toxicology Program [NTP] Cell-based models are critical for drug discovery. […] Viable cells produce no appreciable increases in fluorescence. Therefore, the fluorescence signal produced by the binding interaction with dead cell DNA is proportional to cytotoxicity. […]
Inconclusive results are not listed. Activity calls are given as the source filed them. Calls follow the shape of the dose curve; as a rule, active = well fitted activation curve with a large enough effect in the repeat runs; inconclusive = weak or mixed curves; inactive = flat fitted curve, though single readings scatter.
Possible outcomes: active, inactive

[
  {
    "compound": "CC1(C)COP(Oc2ccccc2)OC1",
    "categoryLabel": "inactive"
  },
  {
    "compound": "Nc1cc(Cl)ccc1O",
    "categoryLabel": "inactive"
  },
  {
    "compound": "COc1cc(C[C@@H](C)N)c(OC)cc1C",
    "categoryLabel": "inactive"
  },
  {
    "compound": "CCN(CC)c1nc(C)cc(OP(=S)(OC)OC)n1",
    "categoryLabel": "inactive"
  },
  {
    "compound": "CN1C[C@@H](NS(=O)(=O)N(C)C)C[C@@H]2c3cccc4c3c(cn4C)C[C@H]21",
    "categoryLabel": "inactive"
  },
  {
    "compound": "CN(N=O)C(N)=O",
    "categoryLabel": "inactive"
  },
  {
    "compound": "C[N+](=O)[O-]",
    "categoryLabel": "inactive"
  },
  {
    "compound": "CCOP(=S)(OCC)Oc1ncn(-c2ccccc2)n1",
    "categoryLabel": "inactive"
  },
  {
    "compound": "CCOC(=O)CP(=O)(OCC)OCC",
    "categoryLabel": "inactive"
  },
  {
    "compound": "c1coc(-c2nc3ccccc3[nH]2)c1",
    "categoryLabel": "inactive"
  },
  {
    "compound": "CC(Cl)(Cl)[N+](=O)[O-]",
    "categoryLabel": "inactive"
  },
  {
    "compound": "O=C(CCN1CC1)OCC(CO)(COC(=O)CCN1CC1)COC(=O)CCN1CC1",
    "categoryLabel": "inactive"
  },
  {
    "compound": "COc1ncc(F)c2nc(S(=O)(=O)Nc3c(F)cccc3F)nn12",
    "categoryLabel": "inactive"
  },
  {
    "compound": "Cc1cccc(C#N)c1",
    "categoryLabel": "inactive"
  },
  {
    "compound": "CNCC(=O)c1ccc(O)c(O)c1",
    "categoryLabel": "inactive"
  },
  {
    "compound": "CNC(=O)O/N=C(\\C)SC",
    "categoryLabel": "active"
  },
  {
    "compound": "C=CCC1=C(C)[C@@H](OC(=O)[C@@H]2[C@@H](C=C(C)C)C2(C)C)CC1=O",
    "categoryLabel": "inactive"
  },
  {
    "compound": "N#Cc1ccncc1",
    "categoryLabel": "inactive"
  },
  {
    "compound": "CC(=O)CCc1ccc2c(c1)OCO2",
    "categoryLabel": "inactive"
  },
  {
    "compound": "O=C1CN2CCOC2(c2ccccc2Cl)c2cc(Cl)ccc2N1 (configuration not stated)",
    "categoryLabel": "inactive"
  },
  {
    "compound": "ClC(Br)Br",
    "categoryLabel": "inactive"
  },
  {
    "compound": "O=NN1CCN(N=O)CC1",
    "categoryLabel": "inactive"
  },
  {
    "compound": "ClCC(Cl)(Cl)Cl",
    "categoryLabel": "inactive"
  },
  {
    "compound": "CC1CCCCC1NC(=O)Nc1ccccc1 (configuration not stated)",
    "categoryLabel": "inactive"
  },
  {
    "compound": "Nc1n[nH]c(N)n1",
    "categoryLabel": "inactive"
  },
  {
    "compound": "O=c1oc2ccccc2c(O)c1C1CCCc2ccccc21 (configuration not stated)",
    "categoryLabel": "inactive"
  },
  {
    "compound": "COP(N)(=S)Oc1ccccc1C(=O)OC(C)C (configuration not stated)",
    "categoryLabel": "inactive"
  },
  {
    "compound": "CCCCOC(=O)[C@@H](C)Oc1ccc(Oc2ccc(C#N)cc2F)cc1",
    "categoryLabel": "inactive"
  },
  {
    "compound": "Cc1nc(N)nc(N)n1",
    "categoryLabel": "inactive"
  },
  {
    "compound": "O=P(O)(Oc1ccccc1)Oc1ccccc1",
    "categoryLabel": "inactive"
  },
  {
    "compound": "Nc1ccccc1Cl",
    "categoryLabel": "inactive"
  },
  {
    "compound": "CN1CCC(N(Cc2ccccc2)c2ccccc2)CC1",
    "categoryLabel": "inactive"
  },
  {
    "compound": "CCOP(=S)(Oc1cnc(C(C)(C)C)nc1)OC(C)C (configuration not stated)",
    "categoryLabel": "inactive"
  },
  {
    "compound": "COC(=O)c1ccccc1S(=O)(=O)NC(=O)N(C)c1nc(C)nc(OC)n1",
    "categoryLabel": "inactive"
  },
  {
    "compound": "CCOP(=S)(OCC)Oc1nc(Cl)n(C(C)C)n1",
    "categoryLabel": "inactive"
  },
  {
    "compound": "CCC(Cl)[N+](=O)[O-] (configuration not stated)",
    "categoryLabel": "inactive"
  },
  {
    "compound": "Clc1cccc(N2CCNCC2)c1",
    "categoryLabel": "inactive"
  },
  {
    "compound": "Nc1cnn(-c2ccccc2)c(=O)c1Cl",
    "categoryLabel": "inactive"
  },
  {
    "compound": "OC(c1ccc(F)cc1)(c1cncnc1)c1ccccc1Cl (configuration not stated)",
    "categoryLabel": "inactive"
  },
  {
    "compound": "CC(C)(C)C(=O)C(Oc1ccc(Cl)cc1)n1cncn1 (configuration not stated)",
    "categoryLabel": "inactive"
  },
  {
    "compound": "CC(C=O)Cc1ccc2c(c1)OCO2 (configuration not stated)",
    "categoryLabel": "inactive"
  },
  {
    "compound": "CCS(=O)(=O)C(C)(C)S(=O)(=O)CC",
    "categoryLabel": "inactive"
  },
  {
    "compound": "CNC(=O)Oc1ccccc1C1OCCO1",
    "categoryLabel": "inactive"
  },
  {
    "compound": "CC(C)NCC(O)c1ccc(N)c(C#N)c1 (configuration not stated)",
    "categoryLabel": "inactive"
  },
  {
    "compound": "CC(=O)C(Cl)Cl",
    "categoryLabel": "inactive"
  },
  {
    "compound": "CCS(=O)(=O)CCSP(=O)(OC)OC",
    "categoryLabel": "inactive"
  },
  {
    "compound": "O=C(O)C(Br)CBr (configuration not stated)",
    "categoryLabel": "inactive"
  },
  {
    "compound": "CCOP(=O)(N=C1SCCS1)OCC",
    "categoryLabel": "inactive"
  },
  {
    "compound": "COc1cccc(C(=O)NN(C(=O)c2cc(C)cc(C)c2)C(C)(C)C)c1C",
    "categoryLabel": "inactive"
  },
  {
    "compound": "OCCSCSCCO",
    "categoryLabel": "inactive"
  },
  {
    "compound": "ClCCOCOCCCl",
    "categoryLabel": "inactive"
  },
  {
    "compound": "COc1cc(OC)nc(NC(=O)NS(=O)(=O)c2ncccc2C(=O)N(C)C)n1",
    "categoryLabel": "inactive"
  },
  {
    "compound": "COc1cc2c(cc1OC)[C@@]13CCN4CC5=CCO[C@H]6CC(=O)N2[C@H]1[C@H]6[C@H]5C[C@H]43",
    "categoryLabel": "inactive"
  },
  {
    "compound": "COC(=O)c1ccccc1S(=O)(=O)NC(=O)Nc1nc(C)cc(C)n1",
    "categoryLabel": "inactive"
  },
  {
    "compound": "Cc1cc(C)c(C(=O)P(=O)(C(=O)c2c(C)cc(C)cc2C)c2ccccc2)c(C)c1",
    "categoryLabel": "inactive"
  },
  {
    "compound": "c1ccc(N2CCNCC2)cc1",
    "categoryLabel": "inactive"
  },
  {
    "compound": "NC(=S)C(N)=S",
    "categoryLabel": "inactive"
  }
]

Sourced from PubChem BioAssay (Tox21)
